Tested on: Wnt5a (protein binding on small-molecule microarray)
Assay: small molecules binding Wnt5a protein – biophysical, small-molecule microarray, 635/667 nm fluorescence, primary screen (AID 1142);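 further: fluorescence read at 667 nm with signal to noise per printed feature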
Details: 635 nm fluorescence, higher = more signal
Outcome Measure: composite z-score

Smiles Repr	Reading
CO[C@H]1O[C@H](CO)[C@@H](OC(=O)Nc2ccc3c(c2)OCO3)[C@H](OC(=O)Nc2ccc3c(c2)OCO3)[C@@H]1OC(=O)Nc1ccc2c(c1)OCO2	0.523
CCOC(=O)C[C@H]1[C@H](OC(=O)c2cc3ccccc3oc2=O)[C@@H](NC(=O)CC(C)C)c2cc(OCCCO)ccc2N1C(=O)c1ccc2ccccc2n1	-0.0457
COCCOC(=O)N1C(=O)[C@@]2(c3cc(C#CCCO)ccc31)[C@H](C(=O)Nc1nc3ccccc3s1)[C@H]1C(=O)O[C@H](c3ccccc3)[C@H](c3ccccc3)N1[C@@H]2c1ccc(O)cc1	0.73
C=C(COC)/C(=C/C[C@H](OC(=O)c1ccncc1)c1ccc(CO)o1)c1cnc2ccccc2c1	0.304
